target: SARS-CoV (2003) spike protein borne on lentiviral pseudovirus (SARS-CoV (2003), UniProt P59594 14-1255); assay: cell-based or functional assay
Assignment: determine reported Pseudo Neut, SARS-CoV 2003 IC50 for the given binders.
Just the number in nM, nothing appended.

For antibody 1815 (antibody, V domains shown) VH: QVQLQESGPGLVKPSETLSLTCSVSGGSINYYYWSWIRKSPGKGLEWIGFIYSSGTTNYNPSLKSRVSMSIGTSKRQFSLKLSSVTAADSAVYYCARHSRSCTNGVCQTYYYYALDVWGHGTTVTVSS VL: QSVLTQPPSVSGAPGQRVTISCTGSSSNIGAGYDVHWYQQLPGTAPKLLIYANTHRPSGVPDRFSASKSGTSASLAIAGLQAEDEGDYYCQSYDGSLSESAVFGGGTRLTVL , what is its reported Pseudo Neut, SARS-CoV 2003 IC50? 26

Would you kindly repeat that for antibody 1439 (antibody, V domains shown) VH: QVQLQESGPGLVKPSETLSLTCTVSGDSISTYYWSWIRQPPGKGLEWIGYIHYSGSTNYNPSLKSRVAVSVDTSKNQFSLKLSSVTAADTAVYYCARGGGVFGVVINFDYWGQGILVTVSS VL: NFMLTQPYSVSESPGKTVTISCTRSSGSIASNYVQWYQQRPGSAPTTVIYEDNQRPSGVPDRFSGSIDSSSNSASLTISGLKTEDEADYYCQSRDSSNPVVFGGGTKLTVL ? 29
